- tested_on: T1, natural Fel d1 (Indoor Biotech, #NA-FD1-2) (cat, UniProt P30438 23-92; P30440 18-109)
- T1 construct: Bought natural heterodimeric glycoprotein, chains linked by disulfide bonds; also called nFel d1; nFel d 1
- experiment: SPR (Biacore), mAb captured, natural Fel d1 injected, 25 C;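 note: rate constants obtained by fitting association and dissociation phases to a one-to-one binding model, with Kd and half-life derived from those rate constants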
# label = fulfilled if koff >= 0.0009 s⁻¹ else not fulfilled

{"binder": "H1M1230N (antibody, V domains shown, chimeric: human variable domains, mouse constant domains (H1M prefix, mouse Fc)) VH: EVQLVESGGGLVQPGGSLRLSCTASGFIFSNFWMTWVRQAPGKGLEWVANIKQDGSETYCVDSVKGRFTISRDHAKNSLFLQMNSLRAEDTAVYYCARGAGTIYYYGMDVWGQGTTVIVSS VL: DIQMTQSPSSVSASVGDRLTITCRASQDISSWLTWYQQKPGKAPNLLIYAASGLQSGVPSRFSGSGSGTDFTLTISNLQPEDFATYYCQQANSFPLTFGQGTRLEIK", "discrete_label": "not fulfilled"}

Hi team, for H4H2645P (antibody, human IgG4, V domains shown, human IgG4 Fc (H4H prefix)) VH: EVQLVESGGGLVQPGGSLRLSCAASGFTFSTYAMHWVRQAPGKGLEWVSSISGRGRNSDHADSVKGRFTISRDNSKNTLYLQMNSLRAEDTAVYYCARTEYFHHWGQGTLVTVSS VL: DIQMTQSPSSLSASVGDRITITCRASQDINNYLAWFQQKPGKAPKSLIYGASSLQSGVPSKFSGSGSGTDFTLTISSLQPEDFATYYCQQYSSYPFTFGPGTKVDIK , is the recorded koff at or above 0.0009 s⁻¹?
not fulfilled

Hi team, for H2M1236N (antibody, mouse IgG2, V domains shown, chimeric: human variable domains, mouse IgG2 Fc (H2M prefix)) VH: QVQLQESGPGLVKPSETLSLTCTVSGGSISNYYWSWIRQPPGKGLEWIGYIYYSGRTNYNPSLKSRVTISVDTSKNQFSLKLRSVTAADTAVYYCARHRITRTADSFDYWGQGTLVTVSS VL: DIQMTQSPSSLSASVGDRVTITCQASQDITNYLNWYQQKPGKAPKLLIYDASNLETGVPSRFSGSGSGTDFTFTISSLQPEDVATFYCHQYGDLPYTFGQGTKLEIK , is the recorded koff at or above 0.0009 s⁻¹?
fulfilled

Hi team, for H4H2594S (antibody, human IgG4, V domains shown, human IgG4 Fc (H4H prefix)) VH: EVQLVESGGGLVKPGGSLRLSCAASGFTFSDYYMNWIRQAPGKGLEWVSYISSSGSSIYYADSVKGRFTISRDNAKNSLYLLMNSLRAEDTAVYYCARDGKYNSSPGDYWGQGTLVTVSS VL: DIQMTQSPSSLSASVGDRVTIACRASQGISNYLAWFQQKPGKAPKSLIYAASSLQSGVPSKFSGSGSGTDFTLTISSLQPEDFATYYCQQYNSYPLTFGGGTKVEIKR , is the recorded koff at or above 0.0009 s⁻¹?
fulfilled

Hi team, for H1M1241N (antibody, V domains shown, chimeric: human variable domains, mouse constant domains (H1M prefix, mouse Fc)) VH: EVQLVESGGGLVKPGGSLRLSCAASGFTFSSYSMNWVRQAPGKGLEWVSSISSRSSYIYYADSVKGRFTISRDNAKNSLYLQMNSLRAEDTAVYYCARDHIVVVPGASYYYYGMDVWGQGTTVTVSS VL: DIQMTQSPSSLSASVGDRVTITCRASQGIRNDLGWYQQKPGKAPKRLISAASSLQSGVPSRFSGSGSGTEFTLTISSLQPEDFATYYCLQHNSYPLTFGGGTKVEIK , is the recorded koff at or above 0.0009 s⁻¹?
not fulfilled
